Cited source: ChEMBL document CHEMBL1154188

Biological target: Hepatocyte growth factor receptor (Homo sapiens, UniProt P08581)
Sequence (P08581 whole entry): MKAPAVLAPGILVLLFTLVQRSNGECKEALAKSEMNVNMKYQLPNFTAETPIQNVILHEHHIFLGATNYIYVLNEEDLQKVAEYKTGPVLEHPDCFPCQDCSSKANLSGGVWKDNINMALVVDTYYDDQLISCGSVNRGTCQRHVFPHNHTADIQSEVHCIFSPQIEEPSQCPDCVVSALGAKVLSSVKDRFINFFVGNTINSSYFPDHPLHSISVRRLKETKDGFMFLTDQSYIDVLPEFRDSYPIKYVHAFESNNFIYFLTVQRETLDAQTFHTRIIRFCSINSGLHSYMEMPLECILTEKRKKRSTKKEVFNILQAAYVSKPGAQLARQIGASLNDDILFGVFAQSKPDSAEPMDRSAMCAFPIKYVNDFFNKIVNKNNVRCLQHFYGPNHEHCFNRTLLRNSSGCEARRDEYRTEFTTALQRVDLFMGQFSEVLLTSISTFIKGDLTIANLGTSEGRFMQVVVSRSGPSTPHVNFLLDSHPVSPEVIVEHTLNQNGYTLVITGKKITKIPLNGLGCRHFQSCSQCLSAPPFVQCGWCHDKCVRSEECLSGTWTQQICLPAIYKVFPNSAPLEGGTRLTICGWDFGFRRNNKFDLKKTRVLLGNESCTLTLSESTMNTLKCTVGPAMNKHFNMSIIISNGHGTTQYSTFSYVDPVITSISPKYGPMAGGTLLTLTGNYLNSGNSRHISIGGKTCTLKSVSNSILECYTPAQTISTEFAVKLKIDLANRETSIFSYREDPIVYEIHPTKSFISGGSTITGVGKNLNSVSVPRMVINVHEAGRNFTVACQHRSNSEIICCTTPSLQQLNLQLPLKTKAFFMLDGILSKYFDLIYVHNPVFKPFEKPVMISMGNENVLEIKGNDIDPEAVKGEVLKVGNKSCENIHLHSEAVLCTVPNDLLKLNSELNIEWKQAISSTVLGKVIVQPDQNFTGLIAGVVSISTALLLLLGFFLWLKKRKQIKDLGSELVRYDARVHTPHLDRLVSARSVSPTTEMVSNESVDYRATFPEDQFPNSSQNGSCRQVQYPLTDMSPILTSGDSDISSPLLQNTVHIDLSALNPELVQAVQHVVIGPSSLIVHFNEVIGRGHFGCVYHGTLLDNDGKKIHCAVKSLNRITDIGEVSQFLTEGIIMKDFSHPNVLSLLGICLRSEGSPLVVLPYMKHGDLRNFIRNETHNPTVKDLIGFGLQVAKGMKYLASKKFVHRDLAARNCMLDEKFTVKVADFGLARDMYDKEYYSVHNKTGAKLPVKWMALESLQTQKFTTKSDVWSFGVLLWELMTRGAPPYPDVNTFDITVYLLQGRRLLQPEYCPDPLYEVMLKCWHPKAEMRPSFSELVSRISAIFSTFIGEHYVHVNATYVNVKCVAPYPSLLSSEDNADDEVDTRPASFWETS
Experiment: Inhibition of recombinant MET at 20 uM by [gamma-33P]ATP based assay
inhibition reference
Write the answer as a number in %, unit excluded.

# annotated cases, reported inhibition shown
> print(dat)
                                   compound  result.units  endpoint.result
1  Nc1ncc(-c2ccc(C(=O)NCC3CCCNC3)cc2)nc1Oc1ccc2cc[nH]c2c1 (configuration not stated)             %               65
2  CC(Oc1nc(-c2ccc(C(=O)NCC3CCCNC3)cc2)cnc1N)c1c(Cl)cccc1Cl (configuration not stated)             %               53
3  Nc1ncc(-c2ccc(C(=O)NCC3CCNC3)cc2)nc1Oc1ccc2cc[nH]c2c1 (configuration not stated)             %               75
4  Nc1ncc(-c2ccc(C(=O)NCC3CCNCC3)cc2)nc1Oc1ccc2cc[nH]c2c1             %               96
5  Nc1ncc(-c2ccc(C(=O)NCC3CCCN3)cc2)nc1Oc1ccc2cc[nH]c2c1 (configuration not stated)             %               77
6  Nc1ncc(-c2ccc(C(=O)NC3CCNCC3)cc2)nc1Oc1ccc2cc[nH]c2c1             %               73

For the next question, use this compound.
Lookup: Let me know recorded inhibition for `Nc1ncc(-c2ccc(C(=O)N[C@@H]3CCNC3)cc2)nc1Oc1ccc2cc[nH]c2c1` , thanks.
Found: 65

---

Molecular target: Tyrosine-protein kinase ABL1 (Homo sapiens)
Assay: Inhibition of recombinant ABL1 at 20 uM by [gamma-33P]ATP based assay
Readout kind: inhibition (%)
Write the answer as a number in %, unit excluded.

> print(dat)
                                   compound  readout.kind  result.units  endpoint.result
1  Nc1ncc(-c2ccc(C(=O)N[C@@H]3CCNC3)cc2)nc1Oc1ccc2cc[nH]c2c1    inhibition             %               84
2  Nc1ncc(-c2ccc(C(=O)NCC3CCCNC3)cc2)nc1Oc1ccc2cc[nH]c2c1 (configuration not stated)    inhibition             %               81
3  Nc1ncc(-c2ccc(C(=O)NCC3CCNCC3)cc2)nc1Oc1ccc2cc[nH]c2c1    inhibition             %               94
4  Nc1ncc(-c2ccc(C(=O)NC3CCNCC3)cc2)nc1Oc1ccc2cc[nH]c2c1    inhibition             %               85

Lookup: Let me know recorded inhibition for CC(Oc1nc(-c2ccc(C(=O)NCC3CCCNC3)cc2)cnc1N)c1c(Cl)cccc1Cl (configuration not stated) , thanks.
Found: 11

Lookup: Let me know recorded inhibition for Nc1ncc(-c2ccc(C(=O)NCC3CCNC3)cc2)nc1Oc1ccc2cc[nH]c2c1 (configuration not stated) , thanks.
Found: 87

Lookup: Let me know recorded inhibition for Nc1ncc(-c2ccc(C(=O)NCC3CCCN3)cc2)nc1Oc1ccc2cc[nH]c2c1 (configuration not stated) , thanks.
Found: 87

---

Target: Hepatocyte growth factor receptor (Homo sapiens)
Assay: Inhibition of recombinant MET by [gamma-33P]ATP based assay
Please respond with criterion met when measured IC50 is strictly beneath 4 µM, and with criterion not met in all other cases.

Solved cases (5 shown):
> print(dat)
                                   compound                               system.name     assigned.class
1  Nc1ncc(-c2ccc(C(=O)N[C@@H]3CCNC3)cc2)nc1Oc1ccc2cc[nH]c2c1  Hepatocyte growth factor receptor (Homo sapiens)  criterion not met
2  Nc1ncc(-c2ccc(C(=O)NCC3CCCNC3)cc2)nc1Oc1ccc2cc[nH]c2c1 (configuration not stated)  Hepatocyte growth factor receptor (Homo sapiens)  criterion not met
3  Nc1ncc(-c2ccc(C(=O)NCC3CCNCC3)cc2)nc1Oc1ccc2cc[nH]c2c1  Hepatocyte growth factor receptor (Homo sapiens)      criterion met
4  Nc1ncc(-c2ccc(C(=O)NCC3CCCN3)cc2)nc1Oc1ccc2cc[nH]c2c1 (configuration not stated)  Hepatocyte growth factor receptor (Homo sapiens)  criterion not met
5  Nc1ncc(-c2ccc(C(=O)NC3CCNCC3)cc2)nc1Oc1ccc2cc[nH]c2c1  Hepatocyte growth factor receptor (Homo sapiens)  criterion not met

Lookup: Does the reported IC50 of Nc1ncc(-c2ccc(C(=O)NCC3CCNC3)cc2)nc1Oc1ccc2cc[nH]c2c1 (configuration not stated) stay below 4 µM?
Found: criterion met

Lookup: Does the reported IC50 of CC(Oc1nc(-c2ccc(C(=O)NCC3CCCNC3)cc2)cnc1N)c1c(Cl)cccc1Cl (configuration not stated) stay below 4 µM?
Found: criterion met
